B1: TPR t1 (parent)
chain: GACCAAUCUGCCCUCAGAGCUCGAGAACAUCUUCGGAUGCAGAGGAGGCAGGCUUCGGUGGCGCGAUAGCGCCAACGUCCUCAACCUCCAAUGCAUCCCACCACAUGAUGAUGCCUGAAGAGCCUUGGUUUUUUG

variants of: B1; experiment: polymerase ribozyme fitness, log enrichment relative to wild type (log ratio); higher = more active; in vitro selection for triplet polymerase activity
Use -4 as the dividing line for polymerase ribozyme fitness (log ratio), with the line itself on the yes side and lower values as no.

- MUTANT DESIGNATION: "C73G C104A"
  ASSIGNED CLASS: "yes"
- MUTANT DESIGNATION: "G107U A119U A121C"
  ASSIGNED CLASS: "yes"
- MUTANT DESIGNATION: "G44C G63C A91G"
  ASSIGNED CLASS: "yes"
- MUTANT DESIGNATION: "G39C C56G A111C G128A"
  ASSIGNED CLASS: "yes"
- MUTANT DESIGNATION: "A41G C102U"
  ASSIGNED CLASS: "yes"
- MUTANT DESIGNATION: "A26G G45C A95G C98G"
  ASSIGNED CLASS: "no"
- MUTANT DESIGNATION: "C88U G110U U125G"
  ASSIGNED CLASS: "yes"
- MUTANT DESIGNATION: "A2C C4U C13U C114U C124G"
  ASSIGNED CLASS: "yes"
- MUTANT DESIGNATION: "G127A G135U"
  ASSIGNED CLASS: "yes"
- MUTANT DESIGNATION: "A16G C40A C49G"
  ASSIGNED CLASS: "yes"
- MUTANT DESIGNATION: "G39A C104A"
  ASSIGNED CLASS: "yes"
- MUTANT DESIGNATION: "A26G U78C U106A G113U C115A"
  ASSIGNED CLASS: "no"
- MUTANT DESIGNATION: "A41C C70G U78C"
  ASSIGNED CLASS: "no"
- MUTANT DESIGNATION: "U9A A18U A41G U92A"
  ASSIGNED CLASS: "yes"
- MUTANT DESIGNATION: "C8A C20A C79A"
  ASSIGNED CLASS: "yes"
- MUTANT DESIGNATION: "C11A C72U A75G U129A"
  ASSIGNED CLASS: "yes"
- MUTANT DESIGNATION: "G17U C34G A68U C72G C85A C123A"
  ASSIGNED CLASS: "no"
- MUTANT DESIGNATION: "C85A G113C G122C U129C"
  ASSIGNED CLASS: "no"
- MUTANT DESIGNATION: "U32C G60U A66G C89G"
  ASSIGNED CLASS: "no"
- MUTANT DESIGNATION: "C20U C22A G23U G44U G63U A66C C88G A103C U109A"
  ASSIGNED CLASS: "no"
- MUTANT DESIGNATION: "G45C G47A"
  ASSIGNED CLASS: "yes"
